target: YAP (Yes 1–associated protein), purified (Homo sapiens)
Sequence (P46937 whole entry): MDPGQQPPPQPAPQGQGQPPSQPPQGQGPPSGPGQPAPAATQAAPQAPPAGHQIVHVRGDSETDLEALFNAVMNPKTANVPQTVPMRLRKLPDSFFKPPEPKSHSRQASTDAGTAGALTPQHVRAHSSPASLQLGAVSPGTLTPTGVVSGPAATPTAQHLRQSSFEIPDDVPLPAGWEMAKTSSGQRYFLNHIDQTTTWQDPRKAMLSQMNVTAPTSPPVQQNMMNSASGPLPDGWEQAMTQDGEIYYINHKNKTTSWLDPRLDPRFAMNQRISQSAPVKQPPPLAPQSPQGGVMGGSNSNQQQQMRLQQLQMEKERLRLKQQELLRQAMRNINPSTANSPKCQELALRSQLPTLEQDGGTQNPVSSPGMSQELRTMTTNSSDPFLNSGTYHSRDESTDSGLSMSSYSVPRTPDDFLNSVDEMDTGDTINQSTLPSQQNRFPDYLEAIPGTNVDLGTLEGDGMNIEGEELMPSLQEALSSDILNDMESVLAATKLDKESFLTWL
experimental.endpoint: Kd (µM)
# value in µM; strip the unit string

Recorded Kd (molecule CCCCCCCCCCCCC/C=C/[C@@H](O)[C@@H](N)COP(=O)(O)O [sphingosine 1-phosphate] ): 13

The reported measurements were obtained from paper PMC11870743.
